Tested on: Escherichia coli TOP10
Experiment: shrunken log2 fold change of peptide-encoding DNA abundance (4.5 h post-induction vs induction); higher = less antimicrobial activity (less host growth inhibition)
Details: time post-induction: 4.5 h; library: site-saturation at positions 5, 18, 19, 20
Reported shrunken log2 fold change is given for each of the following sequences.

SEQUENCE_ENTRY	EXPERIMENTAL_TARGET	shrunken log2 fold change
RRIRLRPPRLPRPRPRPSVCPRP	Escherichia coli TOP10	0.0879
RRIRPRPPRLPRPRPRPTVCPRP	Escherichia coli TOP10	0.149
RRIRGRPPRLPRPRPRPDNAPRP	Escherichia coli TOP10	0.364
RRIRMRPPRLPRPRPRPFQYPRP	Escherichia coli TOP10	0.00421
RRIRFRPPRLPRPRPRPLLVPRP	Escherichia coli TOP10	0.0528
RRIRFRPPRLPRPRPRPYFDPRP	Escherichia coli TOP10	-0.489

----------
Tested on: Escherichia coli TOP10
Experiment: shrunken log2 fold change of peptide-encoding DNA abundance (4.5 h post-induction vs induction); higher = less antimicrobial activity (less host growth inhibition)
Settings: time post-induction: 4.5 h; library: site-saturation at positions 5, 18, 19, 20
ASSAY_METRIC: shrunken log2 fold change

SEQUENCE_ENTRY	EXPERIMENTAL_TARGET	QUANTITATIVE_READOUT
RRIRTRPPRLPRPRPRPADVPRP	Escherichia coli TOP10	-0.391
RRIRRRPPRLPRPRPRPSYRPRP	Escherichia coli TOP10	-0.142
RRIRARPPRLPRPRPRPHVLPRP	Escherichia coli TOP10	-0.0367
RRIRLRPPRLPRPRPRPNAQPRP	Escherichia coli TOP10	-0.0471
RRIRDRPPRLPRPRPRPCSLPRP	Escherichia coli TOP10	-0.0409
RRIRPRPPRLPRPRPRPAYKPRP	Escherichia coli TOP10	-0.302
RRIRVRPPRLPRPRPRPSNCPRP	Escherichia coli TOP10	-0.225
RRIRSRPPRLPRPRPRPMTPPRP	Escherichia coli TOP10	0.13

----------
Tested on: Escherichia coli TOP10
Assay: shrunken log2 fold change of peptide-encoding DNA abundance (4.5 h post-induction vs induction); higher = less antimicrobial activity (less host growth inhibition)
Conditions: time post-induction: 4.5 h; library: site-saturation at positions 5, 18, 19, 20
Reported shrunken log2 fold change is given for each of the following sequences.
ASSAY_METRIC: shrunken log2 fold change

SEQUENCE_ENTRY	QUANTITATIVE_READOUT
RRIRVRPPRLPRPRPRPYPEPRP	1.13
RRIRARPPRLPRPRPRPDYSPRP	0.00409
RRIRARPPRLPRPRPRPDPSPRP	0.508
RRIRMRPPRLPRPRPRPFPGPRP	-0.0808
RRIRARPPRLPRPRPRPVFEPRP	0.41
RRIRWRPPRLPRPRPRPVCVPRP	0.193
RRIRSRPPRLPRPRPRPPSYPRP	-0.555
RRIRDRPPRLPRPRPRPDCFPRP	1.04
RRIRPRPPRLPRPRPRPIRMPRP	-0.039
RRIRCRPPRLPRPRPRPLCLPRP	-0.525
RRIRFRPPRLPRPRPRPVAYPRP	-0.19
RRIRARPPRLPRPRPRPAGQPRP	0.143
RRIRVRPPRLPRPRPRPHRMPRP	-0.457
RRIRERPPRLPRPRPRPWGNPRP	-0.377
RRIRARPPRLPRPRPRPSVMPRP	0.00738

----------
Test system: Escherichia coli TOP10
Assay: shrunken log2 fold change of peptide-encoding DNA abundance (4.5 h post-induction vs induction); higher = less antimicrobial activity (less host growth inhibition)
Details: time post-induction: 4.5 h; library: site-saturation at positions 5, 18, 19, 20
ASSAY_METRIC: shrunken log2 fold change

SEQUENCE_ENTRY	ASSAY_METRIC	QUANTITATIVE_READOUT
RRIRVRPPRLPRPRPRPSARPRP	shrunken log2 fold change	0.275
RRIRMRPPRLPRPRPRPQFRPRP	shrunken log2 fold change	-0.235
RRIRSRPPRLPRPRPRPDDIPRP	shrunken log2 fold change	-0.00173
RRIRQRPPRLPRPRPRPTPKPRP	shrunken log2 fold change	1.53
RRIRNRPPRLPRPRPRPINSPRP	shrunken log2 fold change	-0.208
RRIRRRPPRLPRPRPRPFYEPRP	shrunken log2 fold change	-0.0293
RRIRIRPPRLPRPRPRPIRFPRP	shrunken log2 fold change	-1.35
RRIRIRPPRLPRPRPRPNMWPRP	shrunken log2 fold change	-0.59
RRIRPRPPRLPRPRPRPSENPRP	shrunken log2 fold change	-0.0512
RRIRFRPPRLPRPRPRPFPNPRP	shrunken log2 fold change	-0.0354
RRIRWRPPRLPRPRPRPRAGPRP	shrunken log2 fold change	0.673
RRIRWRPPRLPRPRPRPPWMPRP	shrunken log2 fold change	0.371
RRIRLRPPRLPRPRPRPQVKPRP	shrunken log2 fold change	-0.319
RRIRMRPPRLPRPRPRPCGLPRP	shrunken log2 fold change	0.533
RRIRHRPPRLPRPRPRPRNMPRP	shrunken log2 fold change	-0.65
RRIRIRPPRLPRPRPRPALKPRP	shrunken log2 fold change	-0.0298
RRIRSRPPRLPRPRPRPPMVPRP	shrunken log2 fold change	0.131
RRIRARPPRLPRPRPRPQWNPRP	shrunken log2 fold change	-0.00397
RRIRMRPPRLPRPRPRPRFIPRP	shrunken log2 fold change	-0.154
RRIRHRPPRLPRPRPRPHGNPRP	shrunken log2 fold change	-1.11
RRIRIRPPRLPRPRPRPYIGPRP	shrunken log2 fold change	-0.775
RRIRKRPPRLPRPRPRPPVLPRP	shrunken log2 fold change	-0.0742
RRIRVRPPRLPRPRPRPGHGPRP	shrunken log2 fold change	0.00601
RRIRCRPPRLPRPRPRPNNFPRP	shrunken log2 fold change	-0.493
RRIRGRPPRLPRPRPRPCHKPRP	shrunken log2 fold change	0.121
RRIRDRPPRLPRPRPRPMRDPRP	shrunken log2 fold change	0.131
RRIRYRPPRLPRPRPRPPADPRP	shrunken log2 fold change	0.115
RRIRGRPPRLPRPRPRPDETPRP	shrunken log2 fold change	0.349
RRIRRRPPRLPRPRPRPNQYPRP	shrunken log2 fold change	-0.506
RRIRGRPPRLPRPRPRPNLIPRP	shrunken log2 fold change	-0.0614
RRIRCRPPRLPRPRPRPTIAPRP	shrunken log2 fold change	-0.211
RRIRLRPPRLPRPRPRPQPPPRP	shrunken log2 fold change	0.517
RRIRDRPPRLPRPRPRPWAYPRP	shrunken log2 fold change	0.0388
RRIRGRPPRLPRPRPRPWSSPRP	shrunken log2 fold change	-0.0552
RRIRWRPPRLPRPRPRPPCEPRP	shrunken log2 fold change	0.379
RRIRRRPPRLPRPRPRPGYMPRP	shrunken log2 fold change	0.0939
RRIRTRPPRLPRPRPRPMHKPRP	shrunken log2 fold change	-0.271
RRIRPRPPRLPRPRPRPHYIPRP	shrunken log2 fold change	-0.586
RRIRKRPPRLPRPRPRPFPRPRP	shrunken log2 fold change	0.297
RRIRRRPPRLPRPRPRPQCEPRP	shrunken log2 fold change	0.153
RRIRDRPPRLPRPRPRPSSIPRP	shrunken log2 fold change	0.0533
RRIRRRPPRLPRPRPRPMLCPRP	shrunken log2 fold change	0.709
RRIRHRPPRLPRPRPRPYHNPRP	shrunken log2 fold change	-0.853
RRIRERPPRLPRPRPRPYLYPRP	shrunken log2 fold change	-0.927
RRIRNRPPRLPRPRPRPCVRPRP	shrunken log2 fold change	-0.109
RRIRTRPPRLPRPRPRPTWHPRP	shrunken log2 fold change	0.153
RRIRHRPPRLPRPRPRPVWFPRP	shrunken log2 fold change	0.0927
RRIRNRPPRLPRPRPRPYNGPRP	shrunken log2 fold change	0.0167
RRIRVRPPRLPRPRPRPTYDPRP	shrunken log2 fold change	-0.372

----------
Reported shrunken log2 fold change is given for each of the following sequences.
System: Escherichia coli TOP10;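 also: peptides expressed intracellularly from a pBAD plasmid library in pooled LB shake-flask culture, induced with 0.3% L-arabinose, DNA abundance read by NGS, three biological replicates, DESeq2 with apeglm shrinkage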
Assay: shrunken log2 fold change of peptide-encoding DNA abundance (4.5 h post-induction vs induction); higher = less antimicrobial activity (less host growth inhibition)
Conditions: time post-induction: 4.5 h; library: site-saturation at positions 5, 18, 19, 20

SEQUENCE_ENTRY	EXPERIMENTAL_TARGET	shrunken log2 fold change
RRIRKRPPRLPRPRPRPCITPRP	Escherichia coli TOP10	-0.146
RRIRCRPPRLPRPRPRPADPPRP	Escherichia coli TOP10	-0.195
RRIRFRPPRLPRPRPRPPFWPRP	Escherichia coli TOP10	0.538
RRIRHRPPRLPRPRPRPAQYPRP	Escherichia coli TOP10	-0.0609
RRIRSRPPRLPRPRPRPAYKPRP	Escherichia coli TOP10	-0.136
RRIRVRPPRLPRPRPRPEENPRP	Escherichia coli TOP10	0.265
RRIRVRPPRLPRPRPRPEMYPRP	Escherichia coli TOP10	-0.19
RRIRPRPPRLPRPRPRPVQGPRP	Escherichia coli TOP10	-0.0469
RRIRWRPPRLPRPRPRPFDFPRP	Escherichia coli TOP10	-0.159
RRIRFRPPRLPRPRPRPKWAPRP	Escherichia coli TOP10	-0.075
RRIRTRPPRLPRPRPRPPGTPRP	Escherichia coli TOP10	0.331
RRIRFRPPRLPRPRPRPTTVPRP	Escherichia coli TOP10	-0.132
RRIRHRPPRLPRPRPRPWVRPRP	Escherichia coli TOP10	0.0215
RRIRFRPPRLPRPRPRPAHEPRP	Escherichia coli TOP10	0.0902
RRIRSRPPRLPRPRPRPQCEPRP	Escherichia coli TOP10	0.00747
RRIRERPPRLPRPRPRPIYSPRP	Escherichia coli TOP10	-0.413
RRIRTRPPRLPRPRPRPHSRPRP	Escherichia coli TOP10	0.0646
RRIRTRPPRLPRPRPRPQMMPRP	Escherichia coli TOP10	-0.0792
RRIRQRPPRLPRPRPRPGWFPRP	Escherichia coli TOP10	0.209
RRIRERPPRLPRPRPRPSCEPRP	Escherichia coli TOP10	-0.668
RRIRRRPPRLPRPRPRPAHTPRP	Escherichia coli TOP10	0.448
RRIRIRPPRLPRPRPRPQDPPRP	Escherichia coli TOP10	-0.235
RRIRTRPPRLPRPRPRPTSCPRP	Escherichia coli TOP10	0.104
RRIRWRPPRLPRPRPRPHGIPRP	Escherichia coli TOP10	0.00741
RRIRLRPPRLPRPRPRPTRDPRP	Escherichia coli TOP10	0.454
RRIRYRPPRLPRPRPRPAEEPRP	Escherichia coli TOP10	0.0567
RRIRMRPPRLPRPRPRPHAQPRP	Escherichia coli TOP10	-0.015
RRIRVRPPRLPRPRPRPPNPPRP	Escherichia coli TOP10	0.379
RRIRFRPPRLPRPRPRPHRKPRP	Escherichia coli TOP10	0.306
RRIRERPPRLPRPRPRPYCQPRP	Escherichia coli TOP10	-0.0159
RRIRERPPRLPRPRPRPFMVPRP	Escherichia coli TOP10	-0.599
RRIRFRPPRLPRPRPRPWCRPRP	Escherichia coli TOP10	-0.172
RRIRQRPPRLPRPRPRPCDNPRP	Escherichia coli TOP10	-0.269
RRIRYRPPRLPRPRPRPLWVPRP	Escherichia coli TOP10	-0.0829
RRIRARPPRLPRPRPRPGCKPRP	Escherichia coli TOP10	0.321
RRIRYRPPRLPRPRPRPFSHPRP	Escherichia coli TOP10	-0.0363
RRIRWRPPRLPRPRPRPQYCPRP	Escherichia coli TOP10	-0.198
RRIRPRPPRLPRPRPRPNTMPRP	Escherichia coli TOP10	-0.492
RRIRARPPRLPRPRPRPRDSPRP	Escherichia coli TOP10	0.499

This collection of values is drawn from the supplement of paper PMC9112550.
